B1: APBB1IP (parent)
chain: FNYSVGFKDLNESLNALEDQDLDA

Variants of: B1
Assay: protein stability index of a GFP-peptide fusion (GPS, HEK-293T) (PSI 1-6); higher = more stable;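 note: lentivirally expressed fusions sorted by FACS into six bins by GFP to DsRed ratio, PSI derived from sequencing read proportions per bin multiplied by bin number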
Details: c terminus: a fixed tail appended
measured-attribute: protein stability index
Just the number, please.

I would be grateful if you could share the reported protein stability index for V5P .
4.99

I would be grateful if you could share the reported protein stability index for E12H .
3.69

I would be grateful if you could share the reported protein stability index for L22M .
4.72

I would be grateful if you could share the reported protein stability index for K8S .
4.56

I would be grateful if you could share the reported protein stability index for D9E .
4.25

I would be grateful if you could share the reported protein stability index for E12V .
3.96

I would be grateful if you could share the reported protein stability index for D21L .
2.8

I would be grateful if you could share the reported protein stability index for N15C .
4.32

I would be grateful if you could share the reported protein stability index for K8T .
3.54

I would be grateful if you could share the reported protein stability index for A16N .
4.51

I would be grateful if you could share the reported protein stability index for L10C .
3.5

The measured values listed here are drawn from the supplement of paper PMC10567573.
